# ASSAY EXPLANATION: NOVARTIS: Cytotoxicity against human hepatocellular carcinoma cell line (Huh7)
# Type: toxicity, cell-based, Huh-7
# PROTOCOL CONDITIONS: Huh7 cells (hepatocellular carcinoma cell line)
VALUE KIND: CC50

See these solved cases before continuing.
Dear colleague, I am looking for the recorded CC50 of the following compound: Cc1ccccc1OCCSc1nc2ccc(NC(=O)c3ccccc3)cc2s1
> 100 µM

Another compound to check: CCN(CC)C/C=C/C1(O)c2ccccc2-c2ccccc21
> 10 µM

// each listed compound needs a value for CC50
1. CN(C)CCNc1ncnc2c1[nH]c1ccc(Br)cc12
2. CCOc1ccc(NC(=O)c2ccc(F)c(S(=O)(=O)NC3CCCCCC3)c2)cc1
3. O=C(c1c2c(nc3ccccc13)CCC2)N1CCc2ccccc21
4. Clc1ccc(-c2c[n+](CCc3ccccc3)c3n2CCC3)cc1

1. 21.1 µM
2. 54.8 µM
3. > 11.7 µM
4. > 100 µM

====

# ASSAY EXPLANATION: NOVARTIS: Cytotoxicity against human hepatocellular carcinoma cell line (Huh7)
# Type: toxicity, cell-based, Huh-7
# PROTOCOL CONDITIONS: Huh7 cells (hepatocellular carcinoma cell line)
Kindly supply the reported CC50 values for the records listed here.

Dear colleague, I am looking for the recorded CC50 of the following compound: O=S(=O)(c1ccc(Cl)cc1)N1CCN(C(=S)NCC2CCCO2)CC1 (stereo not given)
> 100 µM

Another compound to check: CC(C)c1ccc(C2N(c3ccccc3)C3(C(=O)c4ccccc4C3=O)C(c3ccc(C(C)C)cc3)C23C(=O)c2ccccc2C3=O)cc1 (stereo not given)
> 10 µM

Another compound to check: CCOCCCNC(=O)c1cc(NC(=O)c2ccc(Cl)c([N+](=O)[O-])c2)ccc1N1CCCCC1
1.43 µM

Another compound to check: CCCc1ccc(OCCNC(=O)CCNC(=O)Nc2cccc(Cl)c2)cc1
> 10 µM

Another compound to check: Cc1cc(C)cc(Nc2cc(C)nc3ncnn23)c1
> 100 µM

// each listed compound needs a value for CC50
1. CC1C(Br)C(=O)C(Br)C(C)C12CCCC2 (stereo not given)
2. CCCc1ccc(OCc2nc(-c3ccc(NC(=O)c4cccs4)cc3)no2)cc1
3. Cc1nnc(SCC(=O)NCc2ccco2)n1-c1ccc(F)cc1
4. Nc1ccc(-c2nc3cc(-c4ccc5[nH]c(-c6ccc(N)cc6)nc5c4)ccc3[nH]2)cc1
5. Cn1cnnc1SCC(=O)Nc1ccccc1C(F)(F)F
6. Cc1ccc(N2C(=O)C3C(C2=O)C2(c4ccccc4)C(=O)C3(c3ccccc3)C(c3ccccc3)=C2c2ccccc2)c([N+](=O)[O-])c1 (stereo not given)

1: > 10 µM; 2: > 100 µM; 3: > 100 µM; 4: > 10 µM; 5: > 100 µM; 6: > 100 µM

// each listed compound needs a value for CC50
1. C=CC1CC23CC(C(OC(=O)CCC(=O)O)c4ccnc5ccc(OC)cc45)N2CCC13 (stereo not given)
2. CCOC(=O)CN1C(=O)c2ccccc2Sc2ncccc21
3. COC(=O)C1=CNC=C(C(=O)OC)C1c1cc(OC)c(OC)cc1OC
4. O=C(O)c1cccc(NC(=O)c2ccc(N3C(=O)c4ccc(C(=O)Nc5cccc(C(=O)O)c5)cc4C3=O)cc2)c1
5. CCOC(=O)C1(CC)CC(C)(C(=O)C[n+]2cccc(Br)c2)OC1=O (stereo not given)

45.7 µM
> 10 µM
> 10 µM
> 100 µM
> 10 µM
